# TEST_TARGET: 5-hydroxytryptamine receptor 1A (Homo sapiens, UniProt P08908); note: assay procedure not described here
# Sequence (P08908 whole entry): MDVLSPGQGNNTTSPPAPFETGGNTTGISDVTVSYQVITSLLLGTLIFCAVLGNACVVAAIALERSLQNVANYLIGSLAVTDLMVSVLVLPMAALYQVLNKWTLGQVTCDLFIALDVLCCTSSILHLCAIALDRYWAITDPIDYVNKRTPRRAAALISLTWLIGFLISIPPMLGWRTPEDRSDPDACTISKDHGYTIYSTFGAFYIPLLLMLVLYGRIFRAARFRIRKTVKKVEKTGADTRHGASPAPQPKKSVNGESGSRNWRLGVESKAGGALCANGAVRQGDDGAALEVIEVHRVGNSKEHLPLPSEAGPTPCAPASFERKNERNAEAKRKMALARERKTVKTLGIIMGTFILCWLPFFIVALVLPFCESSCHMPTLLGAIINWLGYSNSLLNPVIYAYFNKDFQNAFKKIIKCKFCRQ
# Assay type: functional, cell-based
This section presents compounds with their documented AC50 values.

Completed entries (count: 5):
[
  {
    "COMPOUND": "CC(=O)NCCCS(=O)(=O)O [ACAMPROSATE]",
    "TEST_TARGET": "5-hydroxytryptamine receptor 1A (Homo sapiens, UniProt P08908)",
    "AC50": "> 30 µM"
  },
  {
    "COMPOUND": "COc1cccc(C2(O)CCCCC2CN(C)C)c1 (stereo not given)",
    "TEST_TARGET": "5-hydroxytryptamine receptor 1A (Homo sapiens, UniProt P08908)",
    "AC50": "> 10 µM"
  },
  {
    "COMPOUND": "CN1[C@@H]2CC[C@H]1C[C@@H](OC(c1ccccc1)c1ccccc1)C2",
    "TEST_TARGET": "5-hydroxytryptamine receptor 1A (Homo sapiens, UniProt P08908)",
    "AC50": "> 30 µM"
  },
  {
    "COMPOUND": "O=C(OCC(O)CO)c1ccccc1Nc1ccnc2cc(Cl)ccc12 (stereo not given)",
    "TEST_TARGET": "5-hydroxytryptamine receptor 1A (Homo sapiens, UniProt P08908)",
    "AC50": "> 30 µM"
  },
  {
    "COMPOUND": "CCOC(=O)[C@H](CCc1ccccc1)N[C@@H](C)C(=O)N1[C@H](C(=O)O)C[C@@H]2CCC[C@@H]21",
    "TEST_TARGET": "5-hydroxytryptamine receptor 1A (Homo sapiens, UniProt P08908)",
    "AC50": "> 10 µM"
  }
]

Request: AC50, test system 5-hydroxytryptamine receptor 1A (Homo sapiens, UniProt P08908), entry CNC1Cc2ccccc2N(C)c2ccccc21 (stereo not given); note: assay procedure not described here
> 10 µM

Identify the measured AC50 of CCN1CCN(C(=O)N[C@@H](C(=O)N[C@@H]2C(=O)N3C(C(=O)O)=C(CSc4nnnn4C)CS[C@H]23)c2ccc(O)cc2)C(=O)C1=O for 5-hydroxytryptamine receptor 1A (Homo sapiens, UniProt P08908).
> 30 µM

Kindly state the measured AC50 obtained for CC(C)OC(=O)CCC/C=C\C[C@@H]1[C@@H](CC[C@@H](O)CCc2ccccc2)[C@H](O)C[C@@H]1O with 5-hydroxytryptamine receptor 1A (Homo sapiens, UniProt P08908).
> 30 µM

----------
Record set of AC50 for target or system Alpha-2A adrenergic receptor (Homo sapiens, UniProt P08913).

For CCCCCNC(=N)N/N=C/c1c[nH]c2ccc(OC)cc12 [TEGASEROD] , what is its reported AC50?
0.92 µM

----------
# TEST_TARGET: Alpha-2A adrenergic receptor (Homo sapiens)
# Sequence (P08913 whole entry): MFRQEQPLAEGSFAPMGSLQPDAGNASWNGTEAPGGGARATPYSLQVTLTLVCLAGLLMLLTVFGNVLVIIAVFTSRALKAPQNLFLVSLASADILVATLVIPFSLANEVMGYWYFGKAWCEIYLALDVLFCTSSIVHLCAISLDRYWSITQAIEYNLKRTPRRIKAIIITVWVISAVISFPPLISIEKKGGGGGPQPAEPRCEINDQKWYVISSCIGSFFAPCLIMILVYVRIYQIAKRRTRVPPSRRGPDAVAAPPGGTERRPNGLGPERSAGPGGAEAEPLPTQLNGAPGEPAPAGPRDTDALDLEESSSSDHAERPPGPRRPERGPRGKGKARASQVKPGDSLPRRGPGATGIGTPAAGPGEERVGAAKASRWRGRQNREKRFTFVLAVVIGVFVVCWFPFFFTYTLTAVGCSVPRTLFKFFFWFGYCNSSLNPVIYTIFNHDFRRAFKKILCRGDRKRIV
# Assay type: functional, cell-based
Item-by-item account of AC50

[
  {
    "MOLECULE": "CO[C@@H]1[C@@H](O[C@@H]2O[C@H](C)[C@@H](O[C@H]3C[C@@](C)(O)[C@@H](OC(=O)CC(C)C)[C@H](C)O3)[C@H](N(C)C)[C@H]2O)[C@@H](CC=O)C[C@@H](C)[C@@H](O)/C=C/C=C/C[C@@H](C)OC(=O)C[C@H]1OC(C)=O",
    "AC50": "> 10 µM"
  },
  {
    "MOLECULE": "CCOC(=O)[C@H](CCc1ccccc1)N[C@@H](C)C(=O)N1C(=O)N(C)C[C@H]1C(=O)O",
    "AC50": "> 30 µM"
  },
  {
    "MOLECULE": "O=C(O)C1=C(CSc2nnnn2CS(=O)(=O)O)CS[C@@H]2[C@H](NC(=O)[C@H](O)c3ccccc3)C(=O)N12",
    "AC50": "> 30 µM"
  },
  {
    "MOLECULE": "Cc1ccc(S(=O)(=O)NC(=O)NN2CC3CCCC3C2)cc1 (configuration not stated) [GLICLAZIDE]",
    "AC50": "> 10 µM"
  },
  {
    "MOLECULE": "O=C(O)/C=C/c1ccc(Cn2ccnc2)cc1",
    "AC50": "> 30 µM"
  }
]

Given the entry C[C@]12CCC(=O)C=C1CC[C@@H]1[C@@H]2[C@@H](O)C[C@@]2(C)[C@H]1CC[C@]2(O)C(=O)CO [HYDROCORTISONE] , what AC50 was observed with Alpha-2A adrenergic receptor (Homo sapiens)?
> 10 µM

// fetch Alpha-2A adrenergic receptor (Homo sapiens) AC50 for NS(=O)(=O)Cc1noc2ccccc12 [ZONISAMIDE]
> 10 µM

----------
Documented AC50 across a set of compounds
# TEST_TARGET: Neuronal acetylcholine receptor subunit alpha-4 (Homo sapiens, UniProt P43681); note: assay procedure not described here
# Sequence (P43681 whole entry): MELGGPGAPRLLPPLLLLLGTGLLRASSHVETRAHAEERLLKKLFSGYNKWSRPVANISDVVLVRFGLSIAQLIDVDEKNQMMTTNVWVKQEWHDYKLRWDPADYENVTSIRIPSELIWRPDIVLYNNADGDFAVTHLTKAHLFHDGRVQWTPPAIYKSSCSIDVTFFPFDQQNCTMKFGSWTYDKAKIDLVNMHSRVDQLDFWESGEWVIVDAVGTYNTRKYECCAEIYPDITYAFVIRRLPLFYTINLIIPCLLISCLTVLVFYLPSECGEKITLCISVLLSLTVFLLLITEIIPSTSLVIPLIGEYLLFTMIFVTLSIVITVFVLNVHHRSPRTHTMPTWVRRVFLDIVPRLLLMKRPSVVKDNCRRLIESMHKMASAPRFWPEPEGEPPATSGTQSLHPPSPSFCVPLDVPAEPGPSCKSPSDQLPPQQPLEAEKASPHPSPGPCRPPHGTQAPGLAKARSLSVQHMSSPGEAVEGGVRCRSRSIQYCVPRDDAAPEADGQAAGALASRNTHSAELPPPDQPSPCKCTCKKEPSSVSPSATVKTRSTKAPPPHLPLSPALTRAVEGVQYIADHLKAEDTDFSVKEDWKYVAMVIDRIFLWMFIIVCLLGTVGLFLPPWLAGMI

[
  {
    "COMPOUND": "CC[C@@H](C(N)=O)N1CCCC1=O",
    "AC50": "> 30 µM"
  },
  {
    "COMPOUND": "C[N+]1(CCCCC[N+]2(C)CCCC2)CCCC1 [PENTOLINIUM]",
    "AC50": "> 30 µM"
  },
  {
    "COMPOUND": "CN(C)CCC(c1ccc(Cl)cc1)c1ccccn1 (stereo not given) [CHLORPHENIRAMINE]",
    "AC50": "> 10 µM"
  },
  {
    "COMPOUND": "CCOC(=O)OC(C)OC1=C(C(=O)Nc2ccccn2)N(C)S(=O)(=O)c2ccccc21 (stereo not given) [AMPIROXICAM]",
    "AC50": "> 30 µM"
  }
]

Look up AC50: O=C(O[C@H]1C[C@H]2CC[C@@H](C1)[N+]21CCCC1)C(O)(c1ccccc1)c1ccccc1 [TROSPIUM]
> 30 µM

----------
Assay system Histamine H3 receptor (Homo sapiens, UniProt Q9Y5N1); read-out recorded as AC50. Note: assay procedure not described here.

[
  {
    "MOLECULE": "CC(C)C[C@H]1C(=O)N2CCC[C@H]2[C@]2(O)O[C@](NC(=O)[C@@H]3C=C4c5cccc6[nH]c(Br)c(c56)C[C@H]4N(C)C3)(C(C)C)C(=O)N12 [BROMOCRIPTINE]",
    "TEST_TARGET": "Histamine H3 receptor (Homo sapiens, UniProt Q9Y5N1)",
    "AC50": "> 30 µM"
  }
]

Tell me reported AC50 for COc1cccc(C2(O)CCCCC2CN(C)C)c1 (centres undefined) [TRAMADOL] , tested with Histamine H3 receptor (Homo sapiens, UniProt Q9Y5N1).
Sequence (Q9Y5N1 whole entry): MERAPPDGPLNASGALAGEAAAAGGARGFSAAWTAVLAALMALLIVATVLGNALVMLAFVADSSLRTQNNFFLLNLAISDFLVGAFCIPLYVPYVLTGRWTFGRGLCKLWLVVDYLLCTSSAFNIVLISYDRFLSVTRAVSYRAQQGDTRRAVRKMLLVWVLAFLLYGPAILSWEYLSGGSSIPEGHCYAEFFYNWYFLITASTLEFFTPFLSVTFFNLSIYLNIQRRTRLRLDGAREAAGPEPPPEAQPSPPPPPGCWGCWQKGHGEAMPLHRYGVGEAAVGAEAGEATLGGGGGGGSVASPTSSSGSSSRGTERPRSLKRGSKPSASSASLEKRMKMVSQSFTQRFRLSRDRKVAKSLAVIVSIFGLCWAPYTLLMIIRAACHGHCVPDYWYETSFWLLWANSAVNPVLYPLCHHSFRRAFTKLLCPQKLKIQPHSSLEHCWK
> 10 µM

Any idea what AC50 came out for CC(=O)OCC(=O)[C@@]12N=C(C)O[C@@H]1C[C@H]1[C@@H]3CCC4=CC(=O)C=C[C@]4(C)[C@H]3[C@@H](O)C[C@@]12C [DEFLAZACORT] on Histamine H3 receptor (Homo sapiens, UniProt Q9Y5N1)?
> 30 µM

Provide the documented AC50 with Histamine H3 receptor (Homo sapiens, UniProt Q9Y5N1) as the system for Cc1ccc(-c2cc(C(F)(F)F)nn2-c2ccc(S(N)(=O)=O)cc2)cc1 [CELECOXIB]
> 10 µM

----------
# TEST_TARGET: Gastrin/cholecystokinin type B receptor (Homo sapiens, UniProt P32239); note: assay procedure not described here
# Sequence (P32239 whole entry): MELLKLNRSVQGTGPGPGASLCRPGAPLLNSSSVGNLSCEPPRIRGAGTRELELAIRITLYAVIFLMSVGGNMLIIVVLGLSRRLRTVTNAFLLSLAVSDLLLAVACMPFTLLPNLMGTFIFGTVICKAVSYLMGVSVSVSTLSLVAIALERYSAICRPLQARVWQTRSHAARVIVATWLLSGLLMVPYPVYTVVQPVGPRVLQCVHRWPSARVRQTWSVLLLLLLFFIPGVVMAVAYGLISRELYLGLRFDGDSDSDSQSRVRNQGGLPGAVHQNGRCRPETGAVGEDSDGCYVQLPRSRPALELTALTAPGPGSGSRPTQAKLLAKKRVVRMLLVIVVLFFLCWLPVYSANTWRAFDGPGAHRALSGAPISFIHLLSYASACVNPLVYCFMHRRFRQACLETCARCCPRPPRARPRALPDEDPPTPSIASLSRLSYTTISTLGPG
Parameter: AC50. Scope: all listed entries.

Sample records with AC50:
[
  {
    "COMPOUND": "COc1ccc2c3c1O[C@H]1C(=O)CC[C@@]4(O)[C@@H](C2)N(C)CC[C@]314",
    "AC50": "> 30 µM"
  },
  {
    "COMPOUND": "O=C1Nc2ccc(Cl)cc2[C@@](C#CC2CC2)(C(F)(F)F)O1",
    "AC50": "45 µM"
  },
  {
    "COMPOUND": "Cc1cn([C@H]2C=C[C@@H](CO)O2)c(=O)[nH]c1=O",
    "AC50": "> 30 µM"
  },
  {
    "COMPOUND": "COc1ccccc1OCC(O)CN1CCN(CC(=O)Nc2c(C)cccc2C)CC1 (stereo not drawn)",
    "AC50": "> 30 µM"
  },
  {
    "COMPOUND": "NCC(=O)CCC(=O)O",
    "AC50": "> 30 µM"
  }
]

Can you look up the measured AC50 of O=C(O)C1=C(CSc2nnnn2CS(=O)(=O)O)CS[C@@H]2[C@H](NC(=O)[C@H](O)c3ccccc3)C(=O)N12 for me?
> 30 µM

Tell me the measured AC50 of Brc1c(NC2=NCCN2)ccc2nccnc12 , please.
> 30 µM

Name the recorded AC50 for CCc1c(Cl)c(O)c(Cl)c(O)c1C(=O)O[C@H]1[C@H](O)[C@H](OC)[C@H](OC/C2=C\C=C\C[C@H](O)/C(C)=C/[C@H](CC)[C@@H](O[C@@H]3OC(C)(C)[C@@H](OC(=O)C(C)C)[C@H](O)[C@@H]3O)/C(C)=C/C(C)=C/C[C@@H]([C@@H](C)O)OC2=O)O[C@@H]1C .
7.9 µM

Could you tell me which AC50 is on file for C[C@@H]1O[C@@H](O[C@@H]2C=C3CC[C@@H]4[C@H](CC[C@]5(C)[C@@H](c6ccc(=O)oc6)CC[C@]45O)[C@@]3(C)CC2)[C@H](O)[C@H](O)[C@H]1O ?
> 30 µM

# get_value(readout='AC50', item= Nc1nc(/C(=C/CC(=O)O)C(=O)N[C@@H]2C(=O)N3C(C(=O)O)=CCS[C@H]23)cs1 )
> 30 µM

# lookup: AC50 of CC1=C(C(=O)O)N2C(=O)[C@@H](NC(=O)[C@H](N)c3ccccc3)[C@H]2SC1 [CEPHALEXIN ANHYDROUS]
> 30 µM

I have this compound here, CO[C@H]1C[C@@H]2CC[C@@H](C)[C@@](O)(O2)C(=O)C(=O)N2CCCC[C@H]2C(=O)O[C@H]([C@H](C)C[C@@H]2CC[C@@H](O)[C@H](OC)C2)CC(=O)[C@H](C)/C=C(\C)[C@@H](O)[C@@H](OC)C(=O)[C@H](C)C[C@H](C)/C=C/C=C/C=C/1C , and I need its recorded AC50.
> 30 µM

AC50 lookup needed for Cc1ccc(-n2nccn2)c(C(=O)N2CCN(c3nc4cc(Cl)ccc4o3)CC[C@H]2C)c1 , thanks.
> 30 µM

Cited source for all entries: ChEMBL document CHEMBL5291721
